# Test system: Lipid bilayer
# protocolDetails: Induction of ionophore activity across EYPC:CHOL (8:2) large unilamellar vesicles assessed as transmembrane Zn2+ ion transport by measuring decrease in fluorescence intensity for HPTS dye preincubated for 3 mins followed by ZnCl2 addition and mesured after 7.5 mins by HPTS dye based fluorescence spectrophotometric analysis
observable: EC50 (µM)
Field format: number, assumed µM, no unit text.

[in] Input FC(F)(F)c1cc(NC(=S)Nc2cccc3ccc(-n4cnc5ccccc54)nc23)cc(C(F)(F)F)c1 , output reported EC50.
[out] 5.49

###

# Test system: Staphylococcus aureus
# protocolDetails: Antibacterial activity against Staphylococcus aureus MTCC-96 assessed as reduction in bacterial growth incubated for 14 to 16 hrs by microbroth dilution method
# Type: functional
# recordedConditions: time 14-16 hrs
Non-standard residues stand in square brackets, D forms with d. Residues, ends and D or L forms follow the SMILES beside them. ξ: configuration not given here. Orn = NCCC[C@H](N)C(=O)O; ξP = O=C(O)C1CCCN1
Items are presented alongside their recorded MIC.

Here's what some known entries look like.
[O-][n+]1ccccc1S    9.8 µM
S=C(Nc1ccccc1)Nc1cccc2cccnc12    > 25 µM
CC(C)C[C@@H]1NC(=O)[C@H](CCCN)NC(=O)[C@H](C(C)C)NC(=O)[C@@H]2CCCN2C(=O)[C@@H](Cc2ccccc2)NC(=O)[C@H](CC(C)C)NC(=O)[C@H](CCCN)NC(=O)[C@H](C(C)C)NC(=O)C2CCCN2C(=O)[C@@H](Cc2ccccc2)NC1=O (stereo not given in full) (cyclo(L[dF]PV[Orn]L[dF][ξP]V[Orn]))    3.12 µM
FC(F)(F)c1cc(NC(=S)Nc2cccc3ccc(Nc4nc5ccccc5[nH]4)nc23)cc(C(F)(F)F)c1    > 50 µM
FC(F)(F)c1cc(NC(=S)Nc2cccc3ccc(-n4cccc4)nc23)cc(C(F)(F)F)c1    > 50 µM
FC(F)(F)c1cc(NC(=S)Nc2cccc3cccnc23)cc(C(F)(F)F)c1    3.13 µM

[in] Return reported MIC. Input compound: FC(F)(F)c1cc(NC(=S)Nc2cccc3ccc(-n4cnc5ccccc54)nc23)cc(C(F)(F)F)c1
[out] 3.13 µM

[in] Recall and state the measured MIC for O=C(Nc1cc(C(F)(F)F)cc(C(F)(F)F)c1)Nc1cccc2cccnc12 .
[out] > 50 µM

[in] Recall and state the measured MIC for FC(F)(F)c1cc(NC(=S)Nc2cccc3ccc(-n4ccc5ccccc54)nc23)cc(C(F)(F)F)c1 .
[out] 6.25 µM

[in] For FC(F)(F)c1ccc(NC(=S)Nc2cccc3cccnc23)cc1 , write its MIC.
[out] 6.25 µM

[in] Complete the entry with MIC for COc1ccc(NC(=S)Nc2cccc3cccnc23)cc1
[out] > 25 µM

Where do these numbers come from? They come from ChEMBL document CHEMBL5360614.
